target: UniProt P14416; assay: Antagonist activity against human D2R expressed in CHO cells assessed as inhibition of quinpirole-induced mitogenesis after 24 hrs by [3H]thymidine uptake assay; format: cell-based
Sequence (P14416 whole entry): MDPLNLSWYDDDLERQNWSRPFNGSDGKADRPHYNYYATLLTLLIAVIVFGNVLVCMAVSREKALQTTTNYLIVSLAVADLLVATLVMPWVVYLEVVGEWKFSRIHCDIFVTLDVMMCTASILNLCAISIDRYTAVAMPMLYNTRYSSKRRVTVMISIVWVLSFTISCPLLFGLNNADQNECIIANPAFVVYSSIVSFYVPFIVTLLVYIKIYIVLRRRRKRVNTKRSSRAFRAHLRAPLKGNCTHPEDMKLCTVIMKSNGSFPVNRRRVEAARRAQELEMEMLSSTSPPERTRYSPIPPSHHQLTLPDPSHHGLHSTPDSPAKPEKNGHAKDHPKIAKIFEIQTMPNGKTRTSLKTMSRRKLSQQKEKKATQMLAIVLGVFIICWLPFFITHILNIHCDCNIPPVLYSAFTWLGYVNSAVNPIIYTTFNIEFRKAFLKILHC
Hi there, I'd appreciate the recorded IC50 for every entry that follows.
Entry format: amount then unit.

CC(C)(C)c1nc(N2CCN(CCCCNC(=O)c3nc4ccccc4[nH]3)CC2)cc(C(F)(F)F)n1 = 490 nM
COc1ccccc1N1CCN(CCCCNC(=O)c2cn3ccccc3n2)CC1 = 26 nM

Could you now consider this next compound?
Report IC50, nothing else, for this compound: `O=C(NCCCCN1CCN(c2cccc(Cl)c2Cl)CC1)c1cn2ccccc2n1`
55 nM

###

target: D(3) dopamine receptor (Homo sapiens); assay: Displacement of [125I]IABN from wild type human D3R expressed in HEK293 cell membranes by gamma counting method
Please respond with reported Ki for every item in the list.
Numbers only, in nM.

Illustrative cases are given below, each with its answer.
CC(C)(C)c1nc(N2CCN(CCCCNC(=O)c3cn4ccccc4n3)CC2)cc(C(F)(F)F)n1 = 8.4
CN(C)Cc1c(C(=O)NCCCCN2CCN(c3cc(C(F)(F)F)nc(C(C)(C)C)n3)CC2)nc2ccccn12 = 9.1

// fetch Ki given entry `CN(C)Cc1cccc2nc(C(=O)NCCCCN3CCN(c4cc(C(F)(F)F)nc(C(C)(C)C)n4)CC3)cn12`
16

###

biological target: D(3) dopamine receptor (Homo sapiens, UniProt P35462, E90A); test: Displacement of [125I]IABN from human D3R E90A mutant expressed in HEK293 cell membranes by gamma counting method
Sequence (P35462 as listed by the source E90A): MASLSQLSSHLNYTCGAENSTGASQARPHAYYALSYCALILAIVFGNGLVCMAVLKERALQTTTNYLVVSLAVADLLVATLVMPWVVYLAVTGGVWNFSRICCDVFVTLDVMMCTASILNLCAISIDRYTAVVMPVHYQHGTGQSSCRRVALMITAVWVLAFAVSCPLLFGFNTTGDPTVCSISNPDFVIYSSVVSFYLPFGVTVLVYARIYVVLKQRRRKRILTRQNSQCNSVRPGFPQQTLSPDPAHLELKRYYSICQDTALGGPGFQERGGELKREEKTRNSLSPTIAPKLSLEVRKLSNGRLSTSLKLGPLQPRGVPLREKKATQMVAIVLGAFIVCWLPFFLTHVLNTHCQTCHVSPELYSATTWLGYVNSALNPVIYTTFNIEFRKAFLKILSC
measuredParameter: pKi
Numbers only, as −log10 of the molar value.

CN(C)Cc1c(C(=O)NCCCCN2CCN(c3cc(C(F)(F)F)nc(C(C)(C)C)n3)CC2)nc2ccccn12 = 7.80

Go through the list and state pKi for each entry.
1. CC(C)(C)c1nc(N2CCN(CCCCNC(=O)c3cn4ccccc4n3)CC2)cc(C(F)(F)F)n1
2. CN(C)Cc1cccc2nc(C(=O)NCCCCN3CCN(c4cc(C(F)(F)F)nc(C(C)(C)C)n4)CC3)cn12

[7.89, 7.92]

###

organism: Homo sapiens; experiment: Selectivity index, ratio of Ki for human D2LR to Ki or human D3R
measuredParameter: Ratio Ki
Answers are plain numbers.

Worked set:
CN(C)Cc1c(C(=O)NCCCCN2CCN(c3cc(C(F)(F)F)nc(C(C)(C)C)n3)CC2)nc2ccccn12 = 10
CC(C)(C)c1nc(N2CCN(CCCCNC(=O)c3cc4cccnc4s3)CC2)cc(C(F)(F)F)n1 = 21
CC(C)(C)c1nc(N2CCN(CCCCNC(=O)c3cn4cccnc4n3)CC2)cc(C(F)(F)F)n1 = 36
Cc1cc(N2CCN(CCCCNC(=O)c3cn4ccccc4n3)CC2)nc(C(F)(F)F)n1 = 25
CC(C)(C)c1cc(N2CCN(CCCCNC(=O)c3cn4ccccc4n3)CC2)nc(C(C)(C)C)n1 = 19

Provide reported Ratio Ki for each item, in the same order as listed.
1. COc1ccccc1N1CCN(CCCCNC(=O)c2cn3ccccc3n2)CC1
2. N#Cc1cc(N2CCN(CCCCNC(=O)c3cn4ccccc4n3)CC2)cc(C(F)(F)F)c1
3. CC(C)(C)c1nc(N2CCN(CCCCNC(=O)c3sc4ncccc4c3N)CC2)cc(C(F)(F)F)n1
4. O=C(NCCCCN1CCN(c2ccc3ccccc3n2)CC1)c1cn2ccccc2n1
5. O=C(NCCCCN1CCN(c2ccnc3ccccc23)CC1)c1cn2ccccc2n1
6. O=C(NCCCCN1CCN(c2ncnc3ccccc23)CC1)c1cn2ccccc2n1
7. CN(C)Cc1c(C(=O)NCCCCN2CCN(c3cc(C(F)(F)F)nc(C(C)(C)C)n3)CC2)[nH]c2ccccc12
8. CC(C)(C)c1nc(N2CCN(CCCCNC(=O)c3cn4ccncc4n3)CC2)cc(C(F)(F)F)n1

1: 5.4; 2: 30; 3: 14; 4: 20; 5: 29; 6: 4.5; 7: 21; 8: 56

# credit: ChEMBL document CHEMBL3351252
